These measurements were taken from patent US20250027068.

Target: pooled human IgG (human IgG1, 2, 3 and 4)
Label Condition met when Enzyme Activity Endpoint Assay: Fc < 300 ng/µL; otherwise Condition not met.

[
  {
    "protein": "PRT-595 (protein) MANQEIRYSEETPSTITSVWTKGVTPPTDFIQNEDVLHAPYIANQGWYDITKTFNGKDDLLCGAATAGNMLHWWFDQNKEQIENYLKKHPEKQKINFNGEQMFDVKEAIDTKDSQTDSALFEYFKDKAFPYLSTKHLGVFPDHVIDMFINGYRLSLTNHGPTPVKRGTKDPRGGIFDAVFTRGDQSKLLTSRHDFKEKNLNEISDLIKQELTEGKALGLSHTYANVRINHVINLWGADFNAEGNLEAIYVTDSDSNASIGMKKYYVGVNSAGKVAISAKEIEGDNIGAQVLGLFTLSTGQDIWNQTNLEHHHHHH",
    "assigned label": "Condition not met"
  },
  {
    "protein": "PRT-481 (protein) MVTSVWTKGVTPPTDFIYGEDVLHAPYKAGQGWYDITKAFDGGDDLLCGAATAGNMLHWWFDQNKEQIENYLKKHPEKQKINFNGEQMFDVKEAIDTKDSQTNSELFNYFKEKAFPYLSTKHLGVFPDHVIDMFINGYRLSLTNHGPTPVKRQEKDPRGGIFDAVFGRGDQTKLLTNRHDLKNKTLKEISDLIKQELTEGKALGISHTYANVRINHVINLWGADFDAEGNLEAIYVTDSDSNASIGMKKYFVGVNSNGKVAISAKEIEEDNIGAQVLGLFTLSTGQKIWNKTNLEHHHHHH",
    "assigned label": "Condition not met"
  },
  {
    "protein": "PRT-493 (protein) MVTSVWTKGVTPPTNFTYGEDVLHAPYVANQGWYDITKTFNGKDNLLCGAATAGNMLHWWFDQNKEQIENYLKKHPEKQKIIFNNQELFDLKAAIDTKDSQLDSKLFEYFKEKAFPYLSTKHLGVFPDHVIDMFINGYRLSLTNHGPTPVKRGSKDKRGGIFDAVFTRGVQSKLLTNRHDLKNKTLKEISDLIKQELTEGKALGISHTYANVRINHVINLWGADFDAEGNLEAIYVTDSDTNASIGMKKYFVGVNSNGKVAISAKEIEEDNIGAQVLGLFTLSTGQDIWNQTNLEHHHHHH",
    "assigned label": "Condition not met"
  },
  {
    "protein": "PRT-598 (protein) MANQEIRYSEETPSTITSVWTKGVTPPTDFIQNEDVLHAPYIANQGWYDITKTFNGKDDLLCGAATAGNMLHWWFDQNKEQIENYLKKHPEKQKINFNGEQMFDVKEAIDTKDSQTDSALFEYFKDKAFPYLSTKHLGVFPDHVIDMFINGYRLSLTNHGPTPVKRGTKDPRGGIFDAVFTRGDQSKLLTSRHDFKEKTLNEISDLIKQELTEGKALGLSHTYANVRINHVINLWGADFNAEGNLEAIYVTDSDSNASIGMKKYFVGVNSAGKVAISAKEIEGDNIGAQVLGLFTLSTGQDIWNQTNLEHHHHHH",
    "assigned label": "Condition met"
  },
  {
    "protein": "PRT-580 (protein) MANQEIRYSEETPKTITSVWTKGVTPPTDFIKNEDVFHAPYVANQGWYDITKTFNGKDDLLCGAATAGNMLHWWFDQNKEEIERYLKKHPEKQKINFNGEQMFDVKEAIDTKDSQTNSKLFEYFKDKAFPYLSTKHLGVFPDHVIDMFINGYRLSLTNHGPTPVKRGTKDPRGGIFDAVFTRGDQSKLLTSRHDFKEKTLKEISDLIKQELQEGKALGLSHTYANVRINHVINLWGADFDSEGNLEAIYVTDSDSNASIGMKKYYVGVNSAGKVAISAKEIEDDNIGAQVLGLFTLSTGKDIWEQTNLEHHHHHH",
    "assigned label": "Condition met"
  }
]

Check if Enzyme Activity Endpoint Assay: Fc falls below 300 ng/µL for PRT-400 (protein) MVTSVWTKGVTPPADFTQGEDVFHAPYDANQGWYDITKTFNGKDDLLCGAATAGNMLHWWFDQNKEYIEAYLKKHPEKQKIMFGDQELLDVRKAINTKGSQKNSELFNYFRDKAFPNLSARRLGVMPDLVLDMFINGYYLNVTKTQTTDVNRTYQEKDKRGGIFDAVFTRGDQSKLLTSRHDFKEKGLKEISDLIKQELTEGKALGLSHTYANVRINHVINLWGADFDSDGNLKAIYVTDSDSNASIGMKKYFVGVNSAGKVAISAKEIKEDNIGAQVLGLFTLSTGQDIWNQTN .
Condition not met

Check if Enzyme Activity Endpoint Assay: Fc falls below 300 ng/µL for PRT-262 (protein) MVTSVWTKGVTPPTNFTYGEDVLHAPYVANQGWYDITKTFNGKDNLLCGAATAGNMLHWWFDQNKEQIENYLKKHPEKQKINFNGEQLFDVKEAIDTKDSQLDSKLFEYFLEKAFPNLSTKHLGVFPDHVIDMFINGYRLSLLNHGPTPVKRGSKDKRGGIFDAVFTRGVQSKLLTNRHDFKEKTLKEISDLIKQELTEGKALGISHTYANVRINHVINLWGADFDAEGNLEAIAVTDSDTNASIGMKKYFVGVNSSGKVAISAKEIEEDNIGAQVLGLFTLSTGQDIWNQTN .
Condition met
